I'd be grateful if you could share measured viability, T/C for these entries.
tested on: 616215-338-R-J1-PDC complex spheroids, viability % test/control; assay: Anticancer human tumor 616215-338-R-J1-PDC patient-derived colon adenocarcinoma cell line growth inhibition [CLK]; conditions: second compound 0.1 µM; first compound 0.0316 µM; hits give low values;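 also: spheroids exposed to agents for 7 days; 100% = DMSO vehicle wells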
Give the number; % is assumed, so skip it.

Exam item: Requested field: viability, T/C. Item: CC(CO)NC(=O)c1cc(-c2ccc(Cl)cc2)nn(-c2cnn(C)c2)c1=O (stereo not given) + CNC(=O)c1ccc(Nc2nc(OC3CCCC3)c3c(-c4ccc5nc(C)oc5c4)c[nH]c3n2)c(OC)c1
Marked response: 58.9

Exam item: Requested field: viability, T/C. Item: CC1(C)CCC(CN2CCN(c3ccc(C(=O)NS(=O)(=O)c4ccc(NCC5CCOCC5)c([N+](=O)[O-])c4)c(Oc4cnc5[nH]ccc5c4)c3)CC2)=C(c2ccc(Cl)cc2)C1 + CN1CCN(c2cc(C(=O)Nc3cc4cc(-c5cnn(C)c5)ccc4cn3)ccn2)CC1
Marked response: 109

Exam item: Requested field: viability, T/C. Item: CC1(C)CCC(CN2CCN(c3ccc(C(=O)NS(=O)(=O)c4ccc(NCC5CCOCC5)c([N+](=O)[O-])c4)c(Oc4cnc5[nH]ccc5c4)c3)CC2)=C(c2ccc(Cl)cc2)C1 + CNC(=O)c1ccc(Nc2nc(OC3CCCC3)c3c(-c4ccc5nc(C)oc5c4)c[nH]c3n2)c(OC)c1
Marked response: 55.3

Exam item: Requested field: viability, T/C. Item: COc1cccc2c1C(=O)c1c(O)c3c(c(O)c1C2=O)CC(O)(C(=O)CO)CC3OC1CC(N)C(O)C(C)O1 (stereo not given) + CNC(=O)c1ccc(Nc2nc(OC3CCCC3)c3c(-c4ccc5nc(C)oc5c4)c[nH]c3n2)c(OC)c1
Marked response: 53.8

Exam item: Requested field: viability, T/C. Item: C=C(F)C(=O)N1CCN(c2nc(OCC3CCCN3C)nc3c2CCN(c2cccc4cccc(Cl)c24)C3)CC1CC#N (stereo not given) + CN1CCN(c2cc(C(=O)Nc3cc4cc(-c5cnn(C)c5)ccc4cn3)ccn2)CC1
Marked response: 114

Exam item: Requested field: viability, T/C. Item: CCc1c2c(nc3ccc(O)cc13)-c1cc3c(c(=O)n1C2)COC(=O)[C@]3(O)CC + CN1CCN(c2cc(C(=O)Nc3cc4cc(-c5cnn(C)c5)ccc4cn3)ccn2)CC1
Marked response: 19.1

Exam item: Requested field: viability, T/C. Item: CCCS(=O)(=O)Nc1ccc(F)c(C(=O)c2c[nH]c3ncc(-c4ccc(Cl)cc4)cc23)c1F + CNC(=O)c1ccc(Nc2nc(OC3CCCC3)c3c(-c4ccc5nc(C)oc5c4)c[nH]c3n2)c(OC)c1
Marked response: 55

Exam item: Requested field: viability, T/C. Item: Nc1ccccc1NC(=O)c1ccc(CNC(=O)OCc2cccnc2)cc1 + CN1CCN(c2cc(C(=O)Nc3cc4cc(-c5cnn(C)c5)ccc4cn3)ccn2)CC1
Marked response: 110

Exam item: Requested field: viability, T/C. Item: O=C(c1cc(Cc2n[nH]c(=O)c3ccccc23)ccc1F)N1CCN(C(=O)C2CC2)CC1 + CNC(=O)c1ccc(Nc2nc(OC3CCCC3)c3c(-c4ccc5nc(C)oc5c4)c[nH]c3n2)c(OC)c1
Marked response: 59

Exam item: Requested field: viability, T/C. Item: Nc1ccn(C2OC(CO)C(O)C2(F)F)c(=O)n1 (stereo not given) + CNC(=O)c1ccc(Nc2nc(OC3CCCC3)c3c(-c4ccc5nc(C)oc5c4)c[nH]c3n2)c(OC)c1
Marked response: 18.2
